This collection of values is drawn from paper PMC5632533.

system: ICR (CD-1) mice; test: In vivo toxicity in mice (SC, IN, IP routes); settings: IN, 3 doses (1hr, 12hr, 24hr); head doses: RN7-IN10, RN7-IN8 20 mg/kg; RN7-IN9, RN7-IN6 10 mg/kg; day 7; mean±SD, 4 mice
REPORTED ENDPOINT: Hematocrit, HCT (%)
One number for each entry, in %.

FLGGLIKWPWWPWRR-NH2 [RN7-IN8, hybrid peptide of ranalexin (residues 1-7) and indolicidin (residues 6-13)]
44.8

Give me Hematocrit, HCT for each of these substances, listed below.
1. FLGGLIKKWPWWPWRR-NH2 [RN7-IN9, hybrid peptide of ranalexin (residues 1-7) and indolicidin (residues 5-13)]
2. FLGGLIKWWPWRR-NH2 [RN7-IN6, hybrid peptide of ranalexin (residues 1-7) and indolicidin (residues 8-13)]
3. FLGGLIKWKWPWWPWRR-NH2 [RN7-IN10, hybrid peptide of ranalexin (residues 1-7) and indolicidin (residues 4-13)]

46.82
47.43
47.95
